study target: Diaphorase
assay name: peptide array, 10 uM diaphorase, binding without FAD / with FAD
Entries and their measured noFAD/FAD follow.
No unit in the answer, please; the number alone is enough.

binder=YVWGLELSGGSG number=0.476

Task: State, in one line, measured noFAD/FAD of LKQLFLEGGSG
Output: 0.369

Task: Give me measured noFAD/FAD, please, for this binder: RWQYYNQKFGSG
Output: 1

Task: Provide noFAD/FAD value for the following binder: KEAPGPRFGGSG
Output: 1.03
